Please respond with reported MIC range for every item in the list.
system: Cryptococcus neoformans; assay: Broth microdilution MIC; assay type: cell-based; details: Table 1 (MICs); Cryptococcus neoformans, 14 isolates; 72 hr
Bridge positions count the residues as written; N and C are the ends. Square brackets hold non-standard residues; d marks the D form. Peptide text beside a SMILES is read from it. * marks the point of attachment. Asp(3S-OH) = N[C@H](C(=O)O)[C@H](O)C(=O)O; Thr(4-Cl) = N[C@H](C(=O)O)[C@H](O)CCl; X1 = CCCCCCCCC[C@@H](O)CC(=O)*; dDab = NCC[C@@H](N)C(=O)O; Dab = NCC[C@H](N)C(=O)O; Dhb = C/C=C(\N)C(=O)O

Recorded MIC range of C/C=C1\NC(=O)[C@H](Cc2ccccc2)NC(=O)[C@H](CCCN=C(N)N)NC(=O)[C@@H](CCN)NC(=O)[C@H](CCN)NC(=O)[C@@H](CO)NC(=O)[C@@H](NC(=O)C[C@H](O)CCCCCCCCC)COC(=O)[C@H]([C@H](O)CCl)NC(=O)[C@H]([C@H](O)C(=O)O)NC1=O [SR-E, Syringomycin-E] (X1-S[dS][Dab][dDab]RF[Dhb][Asp(3S-OH)][Thr(4-Cl)]; ester 1-C) , please.
2.5 to 10 µg/mL

Param item: CC(=O)N1CCN(c2ccc(OCC3COC(Cn4ccnc4)(c4ccc(Cl)cc4Cl)O3)cc2)CC1 (centres unmarked) [Ktz, ketoconazole, reference compound]
0.04 to 0.6 µg/mL

----------
Field: MIC range. Provide a value for each of the compounds that follow.
system: Microsporum spp.; assay: Broth microdilution MIC; type: cell-based; details: Table 1 (MICs), 2 isolates, 7 days
Numbered stars: 1 amine (or outer) side, 2 acyl side, 3 side chain; on linkers, the order of the positions; unused ones are H or OH. Bridge positions count the residues as written; N and C are the ends. Square brackets hold non-standard residues; d marks the D form. Peptide text beside a SMILES is read from it. * marks the point of attachment. ξ: configuration not given here. Asp(3S-OH) = N[C@H](C(=O)O)[C@H](O)C(=O)O; Thr(4-Cl) = N[C@H](C(=O)O)[C@H](O)CCl; ξAsp(3ξ-OH) = NC(C(=O)O)C(O)C(=O)O; X3 = O=C(C(N[*:1])C(O)CCl)[*:2]; X1 = CCCCCCCCC[C@@H](O)CC(=O)*; X2 = CCCCCCCCCCCC(O)CC(=O)*; dDab = NCC[C@@H](N)C(=O)O; Dab = NCC[CH](N)C(=O)O; Orn = NCCC[CH](N)C(=O)O; hSer = N[CH](CCO)C(=O)O; Dhb = C/C=C(\N)C(=O)O

Requested read-out: MIC range. Entry: C/C=C1\NC(=O)[C@H](Cc2ccccc2)NC(=O)[C@H](CCCN=C(N)N)NC(=O)[C@@H](CCN)NC(=O)[C@H](CCN)NC(=O)[C@@H](CO)NC(=O)[C@@H](NC(=O)C[C@H](O)CCCCCCCCC)COC(=O)[C@H]([C@H](O)CCl)NC(=O)[C@H]([C@H](O)C(=O)O)NC1=O [SR-E, Syringomycin-E] (X1-S[dS][Dab][dDab]RF[Dhb][Asp(3S-OH)][Thr(4-Cl)]; ester 1-C)
6.25 to 12.5 µg/mL

Also C[C@@H]1[C@H](O)[C@@H](C)/C=C/C=C/C=C/C=C/C=C/C=C/C=C/[C@H](O[C@@H]2O[C@H](C)[C@@H](O)[C@H](N)[C@@H]2O)C[C@@H]2O[C@](O)(C[C@@H](O)C[C@@H](O)[C@H](O)CC[C@@H](O)C[C@@H](O)CC(=O)O[C@H]1C)C[C@H](O)[C@H]2C(=O)O [AmB, amphotericin B, reference compound] ?
0.04 to 0.3 µg/mL

Can you check CC(=O)N1CCN(c2ccc(OCC3COC(Cn4ccnc4)(c4ccc(Cl)cc4Cl)O3)cc2)CC1 (centres unmarked) [Ktz, ketoconazole, reference compound] next?
0.8 to 1.6 µg/mL

Same thing, different compound: C/C=C1\NC(=O)C(C(C)O)NC(=O)C(CCCN)NC(=O)C(CCO)NC(=O)CNC(=O)C(CCN)NC(=O)C(NC(=O)CC(O)CCCCCCCCCCC)COC(=O)C(C(O)CCl)NC(=O)C(C(O)C(=O)O)NC1=O (centres unmarked) [ST-B, Syringotoxin B] (X2-S[Dab]G[hSer][Orn]T[Dhb][ξAsp(3ξ-OH)][X3]; ester 1-C; configuration not given here)
25 to 200 µg/mL

And then C/C=C1\NC(=O)C(C(C)O)NC(=O)C(CCCN)NC(=O)C(CCO)NC(=O)C(CCN)NC(=O)C(CCN)NC(=O)C(NC(=O)CC(O)CCCCCCCCCCC)COC(=O)C(C(O)CCl)NC(=O)C(C(O)C(=O)O)NC1=O (centres unmarked) [SS-A, syringostatin-A] (X2-S[Dab][Dab][hSer][Orn]T[Dhb][ξAsp(3ξ-OH)][X3]; ester 1-C; configuration not given here) , what is it?
2.5 to 5 µg/mL
